Just for reference, the supplement of paper PMC12645437 is where these values come from.

Would you mind telling me the reported log2 fold change of degron read counts of each entry?
target-entity: T1, CRBN, Q96SW2;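 note: pooled lentiviral library of zinc finger degron-EGFP fusions in mCherry-positive Jurkat cells, FACS-sorted after compound exposure, with degron abundance counted by next-generation sequencing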
T1 chain: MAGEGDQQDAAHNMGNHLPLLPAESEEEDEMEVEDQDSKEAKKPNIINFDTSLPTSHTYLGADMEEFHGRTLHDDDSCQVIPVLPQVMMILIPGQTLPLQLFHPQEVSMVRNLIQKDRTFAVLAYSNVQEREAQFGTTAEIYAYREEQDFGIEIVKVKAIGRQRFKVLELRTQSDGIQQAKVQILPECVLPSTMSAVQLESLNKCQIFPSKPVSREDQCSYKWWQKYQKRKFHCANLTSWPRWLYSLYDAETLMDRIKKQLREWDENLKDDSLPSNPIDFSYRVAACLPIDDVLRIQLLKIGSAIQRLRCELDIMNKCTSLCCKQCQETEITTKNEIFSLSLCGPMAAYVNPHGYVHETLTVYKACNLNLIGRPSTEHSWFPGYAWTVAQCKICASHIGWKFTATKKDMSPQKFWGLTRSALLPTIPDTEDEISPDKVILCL
test-method-notes: log2 fold change of degron read counts, EGFP-low vs EGFP+ sorted cells (limma voom), compound-induced degradation; higher = more compound-induced degradation of the degron-EGFP fusion; degrons are variants of IKZF1/3 zinc finger 2; compound dose not given here
particulars: Jurkat; 18 h; compound: compound 19 (5-tert-butyl-thalidomide)
The full ranking holds about 8,300 sequences; the median of “log2 fold change of degron read counts, EGFP-low vs EGFP+ sorted cells (limma voom), compound-induced degradation” is about -1.1, and the highest 2% start at about 3.2. This is one part of a sample in which the highest values are shown more often than they occur.
Answers are plain numbers.

The cases that follow already have their log2 fold change of degron read counts on record.
| biopolymer-sequence | log2 fold change of degron read counts |
| --- | --- |
| FDCPVCGAEFTQKGNLLRHIKL [46F_47D_49P_50V_52G_53A_54E_55F_67L_, Q9UKT9] | -0.42 |
| FMCDQCGAAFTQKGNLLRHIKL [46F_47M_49D_50Q_52G_53A_54A_55F_67L_, Q9UKT9] | -1.96 |
| FTCNICGAMFTQKGNLLRHIKL [46F_47T_49N_50I_52G_53A_54M_55F_67L_, Q9UKT9] | -1.09 |

Turning now to a further sequence:
// query Reported log2 fold change of degron read counts, sequence FHCDQCGAWFTQKGNLLRHIKL [46F_47H_49D_50Q_52G_53A_54W_55F_67L_, Q9UKT9] : ____
// result -2.39
